test system: P. falciparum female gametocytes; experiment: P. falciparum Dual Gamete Formation Assay (PfDGFA), female readout (Pfs25-positive female gametes); type: cell-based, Plasmodium falciparum NF54; conditions: Plasmodium falciparum; PfDGFA at 2µM, 24h preincubation with gametocytes; average of replicates; read-out: Average inhibition female (%)
Label rule, in plain words: inhibition at 2 µM of 50% and up is criterion met, under 50% is criterion not met.

CCc1cc2c(Sc3nnc(N)s3)ncnc2s1 [TCMDC-123993]: criterion met
Cc1cccc(Nc2nc(NCCCCN)nc3cc[nH]c(=O)c23)c1.O=C(O)C(F)(F)F [TCMDC-134946]: criterion not met
COc1cc(-c2nc(C(C)(C)CN)[nH]c2-c2ccncc2)ccc1Br.Cl [TCMDC-140674]: criterion met
COCCN(C)CCCOc1cc2c(cc1OC)ncn2-c1cc(OCc2ccccc2C(F)(F)F)c(C(N)=O)s1.Cl [TCMDC-135214]: criterion not met
CC(C)S(=O)(=O)N1CCN(Cc2ccc3c(c2)nc(NC(=O)c2ccsc2)n3C[C@H](O)c2ccccc2)CC1 [TCMDC-138569]: criterion not met

Turning now to a further compound:
[Q] In plain terms: is recorded inhibition at 2 µM at least 50% for CCn1c(-c2nonc2N)nc2c(-c3ccccc3)ncc(OCCCNCCCN3CCOCC3)c21.O=C(O)C(F)(F)F [TCMDC-135858] ?
[A] criterion not met

----------
system: P. falciparum male gametocytes; experiment: P. falciparum Dual Gamete Formation Assay (PfDGFA), male readout (exflagellation); assay type: cell-based, Plasmodium falciparum NF54; details: PfDGFA at 2µM, 24h preincubation with gametocytes; average of replicates
Label rule, in plain words: Average inhibition male (%) of 80% and up is True, under 80% is False.

[Q] In plain terms: is recorded Average inhibition male (%) at least 80% for CS(=O)(=O)O.FC(F)(F)COc1c(CNCCCCCCNCc2ccc3ccccc3c2OCC(F)(F)F)ccc2ccccc12 ?
[A] False

[Q] # repeat for CS(=O)(=O)O.FC(F)(F)COc1ccc2ccccc2c1CCNCCCCNCCc1c(OCC(F)(F)F)ccc2ccccc12
[A] True

[Q] # repeat for COc1ccc(CCNCCCCCCNCCc2ccc(Cl)cc2)c(Cl)c1OC.Cl
[A] False

----------
system: P. falciparum male gametocytes; test: P. falciparum Dual Gamete Formation Assay (PfDGFA), male readout (exflagellation); type: cell-based, Plasmodium falciparum NF54; details: 2µM, 24h preincubation; hits selected on >50% inhibition in the male readout across replicates
measured endpoint: HitlevelM

Past entries and their recorded results:
Br.CCCCCCCCn1c2c(c(=N)c3c1CCC3)CCCC2 [TCMDC-125653]: 1
CC(=O)N(Cc1ccc(CC(C)NCCc2cccc(Cl)c2)cc1)Cc1ccc(CC(C)NCCc2cccc(Cl)c2)cc1 (centres unmarked) [TCMDC-139678]: 0
COc1ccc(-c2csc3nc(C)nc(Cl)c23)cc1OC [TCMDC-125523]: 0
NS(=O)(=O)c1cccc(Nc2nc(N[C@@H]3CCNC3)nc3cc[nH]c(=O)c23)c1.O=C(O)C(F)(F)F [TCMDC-135057]: 0
Cc1cccc2nc(-c3ccc(-c4cccc(CNC5CCN(C)CC5)c4)s3)[nH]c12.O=C(O)C(F)(F)F [TCMDC-132736]: 2

[Q] Item under review: CCCCCCCN1CC[C@@H](CCCc2ccnc3ccc(OC)cc23)[C@@H](CCN)C1.O=C(O)C(=O)O [TCMDC-139278] . Reported HitlevelM?
[A] 2

[Q] # repeat for CC1CCCC(C)N1C[C@@H](O)CNS(=O)(=O)c1cccc(C(F)(F)F)c1.Cl (some centres unmarked) [TCMDC-134258]
[A] 0

[Q] # repeat for CCCCCCN1CCC(NCc2ccc(OCCN3CCCC3)cc2)CC1.O=C(O)C(F)(F)F [TCMDC-141663]
[A] 0

----------
% inhibition male (individual replicates) R3 reference
system: P. falciparum male gametocytes; test: P. falciparum Dual Gamete Formation Assay (PfDGFA), male readout (exflagellation); format: cell-based, Plasmodium falciparum NF54; settings: 2µM, 24h preincubation with gametocytes prior to induction of gametogenesis; replicate R3
Quick reminder: number only, in %, skip the unit.

Past entries and their recorded results:
Br.Oc1cccc(CCNCCCCCCNCCc2ccc(Cl)cc2)c1: 6.4
CC1(C)N=C(N)N=C(N)N1c1ccc(Oc2ccc(Cl)cc2)c(Cl)c1: -10.9
CCc1nc(N)nc(N)c1CCCOc1ccccc1Cl.Cl: 1.0

[Q] Item under review: Cc1cc2c3c(N)nc(N)nc3ccc2n1C . Reported % inhibition male (individual replicates) R3?
[A] -3.6

[Q] # repeat for CCCCCOc1ccc(N2C(N)=NC(N)=NC2(C)C)cc1.Cl
[A] -21.6

[Q] # repeat for COc1ccc2nccc([C@H](O)CN3CCC(NCc4ccc5c(c4C)OCCO5)CC3)c2n1.Cl
[A] -34.1

[Q] # repeat for CCc1cc2c3c(N)nc(N)nc3ccc2n1CC
[A] -28.2

[Q] # repeat for Cc1cc(F)ccc1-c1nc(NCCCNCCc2ccccc2)nc2c1ccc(=O)n2-c1c(F)cccc1F.O=C(O)C(F)(F)F
[A] -28.8

[Q] # repeat for Br.CCCCCCCCn1c2c(c(=N)c3c1CCC3)CCCC2
[A] 52.3

----------
system: P. falciparum female gametocytes; assay: P. falciparum Dual Gamete Formation Assay (PfDGFA), female readout (Pfs25-positive female gametes); type: cell-based, Plasmodium falciparum NF54; conditions: 2µM, 24h preincubation with gametocytes; replicate R3
Label rule, in plain words: % inhibition female (individual replicates) R3 of 40% and up is label 1, under 40% is label 0.

O=C(O)C(=O)O.Oc1c(CN2CCC(Cc3ccccc3)CC2)cc(Cl)c2cccnc12: label 1
Cc1c(Cn2nc(Cl)c(N3CCNCC3)cc2=O)cccc1NC(=O)Nc1ccc(-c2ccccc2)cc1.O=C(O)C(F)(F)F: label 0
COc1ccc(CCNCCCCCCNCCc2ccc(Cl)c3ccccc23)cc1OC.Cl: label 0

[Q] In plain terms: is recorded % inhibition female (individual replicates) R3 at least 40% for CCCN1CCN(CCNc2c3ccccc3nc3ccccc23)CC1 ?
[A] label 0

[Q] # repeat for CC(=NNC(=S)Nc1ccccc1Cl)c1ccccn1
[A] label 1

[Q] # repeat for COc1ccc2nc3cc(Cl)ccc3c(N)c2c1.Cl
[A] label 0

----------
Tested on: P. falciparum male gametocytes
Test: P. falciparum Dual Gamete Formation Assay (PfDGFA), male readout (exflagellation)
Type: cell-based, Plasmodium falciparum NF54
Conditions: 2µM, 24h preincubation with gametocytes prior to induction of gametogenesis; replicate R4
Protocol: […] The Pf DGFA was performed as described in Delves et al. 2016 [17]. […] Exflagellation was recorded by capturing 10 frames over 1 s under brightfield illumination using a x4 objective with a 1.5x zoom (effectively x6) attached to an automated Nikon Ti fluorescence microscope. […] The plates were then returned to the microscope and female gametes imaged at x6 using fluorescence microscopy. […]
% inhibition male (individual replicates) R4 reference
Quick reminder: number only, in %, skip the unit.

Past entries and their recorded results:
O=C(NCC1CCN(CCN2CCC(c3cn(CCO)c4ccccc34)CC2)CC1)c1ccc(-c2ccc(C(F)(F)F)cc2)cc1: 39.5
Cl.c1ccc2c(c1)cc(CNCCCN1CCN(CCCNCc3cc4ccccc4c4ccccc34)CC1)c1ccccc12: 23.6

[Q] Item under review: COc1ccc2ccccc2c1CCCCN1CCN(CC(c2ccc(F)cc2)N2CCC2)CC1.O=C(O)C(F)(F)F (stereo not drawn) . Reported % inhibition male (individual replicates) R4?
[A] 17.6

[Q] # repeat for COc1ccc2nc(Nc3nc4cnccc4[nH]3)sc2c1
[A] -8.5

[Q] # repeat for CN1CCC(NCc2ccc(-c3cccc(S(=O)(=O)NCc4ccccc4)c3)cc2)CC1.O=C(O)C(F)(F)F
[A] 50.9

[Q] # repeat for Nc1nc(N)c2c(ccc3c2ccn3Cc2cccc(F)c2)n1
[A] 64.6

[Q] # repeat for O=C1O[C@H](c2ccccc2)[C@H](c2ccccc2)N(C(=O)OCc2ccccc2)[C@H]1Cc1ccccc1C1CCCC1
[A] -23.7

[Q] # repeat for FC(F)(F)c1ccc2[nH]c(-c3ccc(-c4ccc(CNCCN5CCNCC5)cc4)s3)nc2c1.O=C(O)C(F)(F)F
[A] 89.1

[Q] # repeat for Br.C[C@@H](COc1ccc(-c2ccccc2)cc1)CON1C(N)=NC(N)=NC1(C)C
[A] 7.3

[Q] # repeat for O=C(O)C(F)(F)F.Oc1ccc(CCNc2nc(NCCCOc3cc(CN4CCCCC4)ccc3F)nc(N3CCNCC3)n2)cc1
[A] 28.2

[Q] # repeat for O=C(O)C(F)(F)F.O=S(=O)(NCCN1CCCC1)c1ccc(-c2cccc(CNC3Cc4ccccc4C3)c2)cc1F
[A] 19.5

[Q] # repeat for CC(C)c1cc2c(ccc3nc(N)nc(N)c32)[nH]1
[A] -31.8

[Q] # repeat for COc1ccc(NC(=O)c2cccc(Br)c2)cc1N1CCN(CCCCCCCN2CCN(c3cc(NC(=O)c4cccc(Br)c4)ccc3OC)CC2)CC1.Cl
[A] 43.4

[Q] # repeat for Cc1c(Cn2ncc(N3CCC(N)CC3)c(Cl)c2=O)cccc1NC(=O)Nc1ccc(-c2ccccc2)cc1.O=C(O)C(F)(F)F
[A] 40.2

[Q] # repeat for C[C@H](Cc1ccc(S(=O)(=O)c2ccc(C[C@@H](C)NC[C@H](O)c3cccc(Cl)c3)cc2)cc1)NC[C@H](O)c1cccc(Cl)c1.Cl
[A] 74.2
